Molecular target: U-CTD (hnRNP U RBD) (human, UniProt Q00839 673-825)
Sequence (Q00839 673-825): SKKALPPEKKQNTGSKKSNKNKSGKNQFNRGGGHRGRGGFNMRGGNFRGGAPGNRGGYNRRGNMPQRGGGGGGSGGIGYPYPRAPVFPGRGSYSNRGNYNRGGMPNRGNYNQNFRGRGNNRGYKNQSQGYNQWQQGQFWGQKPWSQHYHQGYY
Test: fluorescence anisotropy
quantity name: apparent K (half saturation) (nM)
Give bare numbers, in nM.

Qu. Report apparent K (half saturation) for MTRNR2L6 antisense 150 nt (ssRNA) RNA: GUGAUCCAACAUCGAGGUCGUAAACCCUAUUGUCAAUAUGGACUCUAGAAUAGGAUUGCGCUGUUAUCCCUAGGGUAACUUGUUCCGUUGAUCAAAUUAUUGGGUCAAUAUAUGUAUAGUAAUUCGCUUAAACUUGUUUAGUCUUAGCAC please.
Ans. 190
